- SYSTEM_TESTED: Beta-secretase 1 (Homo sapiens)
- Sequence (P56817 whole entry): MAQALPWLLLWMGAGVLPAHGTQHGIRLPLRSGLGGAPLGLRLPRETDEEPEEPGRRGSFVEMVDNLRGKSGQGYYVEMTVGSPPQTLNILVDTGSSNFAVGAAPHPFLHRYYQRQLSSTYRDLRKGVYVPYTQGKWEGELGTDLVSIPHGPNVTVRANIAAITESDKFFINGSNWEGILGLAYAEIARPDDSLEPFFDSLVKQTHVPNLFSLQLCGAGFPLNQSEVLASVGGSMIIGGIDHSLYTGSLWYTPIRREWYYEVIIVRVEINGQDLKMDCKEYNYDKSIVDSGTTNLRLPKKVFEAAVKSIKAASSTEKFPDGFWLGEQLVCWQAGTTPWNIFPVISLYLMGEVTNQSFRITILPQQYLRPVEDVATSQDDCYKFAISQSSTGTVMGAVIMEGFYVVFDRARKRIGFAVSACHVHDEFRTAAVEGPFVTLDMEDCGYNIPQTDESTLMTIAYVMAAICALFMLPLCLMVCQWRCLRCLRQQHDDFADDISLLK
- ASSAY_SUMMARY: Inhibition of BACE1 expressing APP Swedish mutant using rhodamine-labeled EVNLDAEFK-quencher as substrate after 60 mins by FRET analysis
METRIC: log10(IC50) (log10 of the value in nM)

{"SMILES_INPUT": "C[C@H](NC(=O)c1cc(-c2ncc(-c3cccc(F)c3)[nH]2)cc(N(C)S(C)(=O)=O)c1)c1ccccc1", "NUMBER": 2.27}
{"SMILES_INPUT": "COc1ccc2[nH]c(-c3cc(C(=O)N[C@@H](C)c4ccccc4)cc(N(C)S(C)(=O)=O)c3)nc2c1", "NUMBER": 2.74}
{"SMILES_INPUT": "CC(C)(C)Nc1c(-c2cccc(-c3nc4ccccc4[nH]3)c2)nc2ccccn12", "NUMBER": 2.71}
{"SMILES_INPUT": "c1cc(-c2cn3ccccc3n2)cc(-c2nc3ccccc3[nH]2)c1", "NUMBER": 2.98}
{"SMILES_INPUT": "COc1ccc2nc(-c3ccc(-c4nc5ccccn5c4NC(C)(C)C)cc3)[nH]c2c1", "NUMBER": 3.35}
{"SMILES_INPUT": "COc1ccc2nc(-c3cccc(-c4nc5ccccn5c4NC(C)(C)C)c3)[nH]c2c1", "NUMBER": 2.25}
{"SMILES_INPUT": "CC(C)(C)Nc1c(-c2ccc(-c3nc4ccccc4[nH]3)cc2)nc2ccccn12", "NUMBER": 3.74}
{"SMILES_INPUT": "CC(C)(C)Nc1c(-c2cccc(-c3nc4ccc(F)cc4[nH]3)c2)nc2ccccn12", "NUMBER": 2.49}
{"SMILES_INPUT": "COc1cccc(-c2c[nH]c(-c3cc(C(=O)N[C@@H](C)c4ccccc4)cc(N(C)S(C)(=O)=O)c3)n2)c1", "NUMBER": 1.89}

###

Reported Ki values are given for each entry in this list.
- SYSTEM_TESTED: Beta-secretase 2 (Homo sapiens, UniProt Q9Y5Z0)
- Sequence (Q9Y5Z0 63-518 limits assumed, stated change not applied): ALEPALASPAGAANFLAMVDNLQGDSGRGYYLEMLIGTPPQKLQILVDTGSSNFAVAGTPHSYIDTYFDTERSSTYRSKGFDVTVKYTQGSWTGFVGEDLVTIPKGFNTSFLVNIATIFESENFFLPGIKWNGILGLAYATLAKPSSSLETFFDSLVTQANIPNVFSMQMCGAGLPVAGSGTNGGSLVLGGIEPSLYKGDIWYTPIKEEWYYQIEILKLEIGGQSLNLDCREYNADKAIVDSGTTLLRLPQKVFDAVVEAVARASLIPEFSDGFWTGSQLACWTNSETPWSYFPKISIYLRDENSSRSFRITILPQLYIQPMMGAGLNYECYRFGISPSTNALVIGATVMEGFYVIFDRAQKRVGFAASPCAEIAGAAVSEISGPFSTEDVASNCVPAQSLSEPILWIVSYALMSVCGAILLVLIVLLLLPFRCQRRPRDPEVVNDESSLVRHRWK
- ASSAY_SUMMARY: Inhibition of BACE2 expressing APP Swedish mutant using rhodamine-labeled EVNLDAEFK-quencher as substrate after 60 mins by Michaelis-Menten equation

{"SMILES_INPUT": "CC(C)(C)Nc1c(-c2ccc(-c3nc4ccccc4[nH]3)cc2)nc2ccccn12", "Ki (nM)": 5510}
{"SMILES_INPUT": "C[C@H](NC(=O)c1cc(-c2ncc(-c3cccc(F)c3)[nH]2)cc(N(C)S(C)(=O)=O)c1)c1ccccc1", "Ki (nM)": 1820}
{"SMILES_INPUT": "Fc1ccc2nc(-c3cccc(-c4cn5ccccc5n4)c3)[nH]c2c1", "Ki (nM)": 3080}
{"SMILES_INPUT": "C[C@H](NC(=O)c1cc(-c2nc(-c3ccccc3)c[nH]2)cc(N(C)S(C)(=O)=O)c1)c1ccccc1", "Ki (nM)": 1730}
{"SMILES_INPUT": "CC(C)(C)Nc1c(-c2ccc(-c3nc4ccc(F)cc4[nH]3)cc2)nc2ccccn12", "Ki (nM)": 3620}
{"SMILES_INPUT": "COc1ccc2nc(-c3ccc(-c4nc5ccccn5c4NC(C)(C)C)cc3)[nH]c2c1", "Ki (nM)": 2810}
{"SMILES_INPUT": "COc1cccc(-c2c[nH]c(-c3cc(C(=O)N[C@@H](C)c4ccccc4)cc(N(C)S(C)(=O)=O)c3)n2)c1", "Ki (nM)": 2280}
{"SMILES_INPUT": "CC(C)(C)Nc1c(-c2cccc(-c3nc4ccccc4[nH]3)c2)nc2ccccn12", "Ki (nM)": 3670}
{"SMILES_INPUT": "C[C@H](NC(=O)c1cc(-c2nc3ccccc3[nH]2)cc(N(C)S(C)(=O)=O)c1)c1ccccc1", "Ki (nM)": 2070}
